assayed_system: T1, Cdc13OB234 (Candida glabrata, UniProt Q6FT40 260-753)
T1 sequence: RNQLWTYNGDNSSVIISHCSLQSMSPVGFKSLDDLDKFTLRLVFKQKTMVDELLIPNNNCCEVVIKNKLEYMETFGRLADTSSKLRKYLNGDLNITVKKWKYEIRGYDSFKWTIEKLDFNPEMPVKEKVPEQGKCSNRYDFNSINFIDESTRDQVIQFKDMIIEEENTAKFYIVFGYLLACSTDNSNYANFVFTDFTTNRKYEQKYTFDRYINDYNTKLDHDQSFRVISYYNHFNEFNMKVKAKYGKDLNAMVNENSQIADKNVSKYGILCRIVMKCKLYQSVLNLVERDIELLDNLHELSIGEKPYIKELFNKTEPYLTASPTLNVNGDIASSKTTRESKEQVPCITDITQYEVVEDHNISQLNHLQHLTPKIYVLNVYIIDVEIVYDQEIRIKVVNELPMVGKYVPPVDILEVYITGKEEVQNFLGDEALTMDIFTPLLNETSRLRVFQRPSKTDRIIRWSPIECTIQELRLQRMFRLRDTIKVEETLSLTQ
protocol_notes: fluorescence polarization
reported_property: Kd (nM)

TGTGGGGTCTGGGTGCTGTGGGGTCTGGGTGCTGTGGGGTCTGGGTGC (ssDNA) [6FAM-CgTelo] :: 13.5
